# System: Aspergillus flavus
# assayNotes: Synergistic antifungal activity against Aspergillus flavus ATCC 16870 assessed as fungal growth inhibition incubated for 24 hrs in the presence of fluconazole by broth dilution based checkerboard method
# Type: functional

compoundString | measureUnit | MIC
COc1ccc(NC(=O)/C=C/C(=O)N2CCC3(CC2)OC(=O)Nc2ccc(OC)cc23)cc1 | µg/mL | 128
COc1ccc2c(c1)C1(CCN(C(=O)/C=C/C(=O)Nc3ccc(F)c(Cl)c3)CC1)OC(=O)N2 | µg/mL | 64
COc1ccc2c(c1)C1(CCN(C(=O)/C=C/C(=O)Nc3ccccc3)CC1)OC(=O)N2 | µg/mL | 64
COc1ccc2c(c1)C1(CCN(C(=O)/C=C/C(=O)Nc3ccccc3Cl)CC1)OC(=O)N2 | µg/mL | 13.3
COc1ccc2c(c1)C1(CCN(C(=O)/C=C/C(=O)Nc3ccc(Br)cc3)CC1)OC(=O)N2 | µg/mL | 53.3
COc1ccc2c(c1)C1(CCN(C(=O)/C=C/C(=O)Nc3ccc([N+](=O)[O-])cc3OC)CC1)OC(=O)N2 | µg/mL | 16

====

# System: Cryptococcus neoformans
# assayNotes: Antifungal activity against Cryptococcus neoformans ATCC 208821 assessed as fungal growth inhibition incubated for 24 hrs by CLSI protocol based broth microdilution method
# Assay type: functional
Overview of recorded MIC for various compounds
outcomeMeasure: MIC (µg/mL)

compoundString | valueModifier | val
COc1ccc2c(c1)C1(CCN(C(=O)CC(=O)Nc3ccc(Br)cc3)CC1)OC(=O)N2 | = | 256
COc1ccc2c(c1)C1(CCN(C(=O)/C=C/C(=O)Nc3ccc(C(F)(F)F)cc3C(F)(F)F)CC1)OC(=O)N2 | > | 512
NC(=O)OC[C@H](O)[C@@H](O)[C@H](N)C(=O)N[C@H](C(=O)O)[C@H]1O[C@@H](n2cc(CO)c(=O)[nH]c2=O)[C@H](O)[C@@H]1O | = | 64
COc1ccc2c(c1)C1(CCN(C(=O)/C=C/C(=O)Nc3ccccc3Cl)CC1)OC(=O)N2 | = | 32
COc1ccc2c(c1)C1(CCN(C(=O)CCC(=O)Nc3ccc(C)cc3)CC1)OC(=O)N2 | = | 256
COc1ccc(NC(=O)/C=C/C(=O)N2CCC3(CC2)OC(=O)Nc2ccc(OC)cc23)cc1 | = | 256
COc1ccc2c(c1)C1(CCN(C(=O)/C=C/C(=O)Nc3cccc4ccccc34)CC1)OC(=O)N2 | = | 256
COc1ccc2c(c1)C1(CCN(C(=O)/C=C/C(=O)Nc3ccccc3Br)CC1)OC(=O)N2 | = | 256
COc1ccc2c(c1)C1(CCN(C(=O)/C=C/C(=O)Nc3ccc(Cl)cc3)CC1)OC(=O)N2 | = | 512
COc1ccc(NC(=O)CC(=O)N2CCC3(CC2)OC(=O)Nc2ccc(OC)cc23)cc1 | > | 512
COc1ccc(NC(=O)CCC(=O)N2CCC3(CC2)OC(=O)Nc2ccc(OC)cc23)cc1 | = | 256
COc1ccc2c(c1)C1(CCN(C(=O)/C=C/C(=O)Nc3ccc([N+](=O)[O-])cc3OC)CC1)OC(=O)N2 | = | 64
COc1ccc2c(c1)C1(CCN(C(=O)CC(=O)Nc3ccccc3)CC1)OC(=O)N2 | = | 256
COc1ccc2c(c1)C1(CCN(C(=O)/C=C/C(=O)Nc3cc(C)cc(C)c3)CC1)OC(=O)N2 | > | 512
COc1ccc2c(c1)C1(CCN(C(=O)/C=C/C(=O)Nc3ccccc3OC)CC1)OC(=O)N2 | = | 256
COc1ccc2c(c1)C1(CCN(C(=O)CCC(=O)Nc3ccc(Br)cc3)CC1)OC(=O)N2 | = | 256
COc1ccc2c(c1)C1(CCN(C(=O)/C=C/C(=O)Nc3ccc(C)cc3)CC1)OC(=O)N2 | = | 256

Data credit: ChEMBL document CHEMBL5331050
